# Tested on: LOX IMVI melanoma
# procedure-details: NCI tumour cell line growth inhibition, 48 h
observation-type: TGI (µM)
Answers are plain numbers, in µM.

Worked cases, TGI given:
>>> recorded_measurement("CCc1ccccc1NC(=O)C1=C(C)NC(C)=C(C(=O)Nc2ccccc2CC)C1c1ccc(NC(C)=O)cc1")
44.2
>>> recorded_measurement("CCCCCCCCC[C@@H]1C[C@@H]2CCC3C(C(=O)OCCCCNC(=O)OCc4ccccc4)=C(C)NC(=N1)N32 (some centres undefined)")
4.31
>>> recorded_measurement("Clc1ccc2c(NCCN3CCN(c4ccnc(N5CCCC5)n4)CC3)ccnc2c1")
3.55
>>> recorded_measurement("CCCCCCCCCCC(CN(CC)CC)C(O)c1ccccc1 (centres undefined)")
3.19

API: the following record is the query input.
// lookup TGI for `CC(C)(C)n1cc(-c2ccnc(NCCCNS(=O)(=O)c3ccc(Cl)cc3)c2)c(-c2cccc(O)c2)n1` 3.15
